Values were extracted from patent US12331044B2.

target: human HDAC2 (Homo sapiens (Human)); experiment: HDAC2 inhibition assay (modified FLUOR DE LYS, 384-well); assay type: biochemical; conditions: […] nM enzyme, 40 μM substrate BML-KI104, 3 h pre-incubation; read-out: HDAC2 IC50
Sequence (Q92769 whole entry): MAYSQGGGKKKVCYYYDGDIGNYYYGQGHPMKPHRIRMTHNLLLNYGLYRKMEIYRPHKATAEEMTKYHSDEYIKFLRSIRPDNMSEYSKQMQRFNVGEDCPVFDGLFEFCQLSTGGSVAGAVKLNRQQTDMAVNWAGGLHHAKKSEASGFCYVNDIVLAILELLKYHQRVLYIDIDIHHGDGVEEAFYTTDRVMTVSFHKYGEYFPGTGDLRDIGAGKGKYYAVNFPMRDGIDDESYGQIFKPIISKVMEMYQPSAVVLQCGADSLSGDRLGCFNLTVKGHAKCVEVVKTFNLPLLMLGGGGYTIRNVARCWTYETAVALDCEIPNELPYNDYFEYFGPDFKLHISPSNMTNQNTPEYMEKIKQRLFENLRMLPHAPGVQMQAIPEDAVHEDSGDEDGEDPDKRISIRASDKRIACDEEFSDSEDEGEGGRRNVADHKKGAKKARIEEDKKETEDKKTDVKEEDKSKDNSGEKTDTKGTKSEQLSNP
measurementLabel: IC50
Returns: string containing the number followed by the unit.

Q: Retrieve IC50 measured for COc1cc2nc(C)ccc2cc1-c1cnc([C@H](CCCCCC(=O)c2ncco2)Nc2ncccn2)[nH]1 and print it.
A: 11 nM

Q: Retrieve IC50 measured for Cc1ccc2cc(-c3c[nH]c([C@H](CCCCCC(=O)c4ncco4)NC4CCOCC4)n3)ccc2n1 and print it.
A: 35 nM

Q: Retrieve IC50 measured for O=C1CC[C@@](CCCCCC(=O)c2ccon2)(c2nc(-c3ccc(-c4ncco4)cc3F)c[nH]2)N1 and print it.
A: 4.3 nM

Q: Retrieve IC50 measured for COc1cc2nc(C)ccc2cc1-c1cnc([C@H](CCCCCC(=O)c2ncco2)NC2CC(OC)C2)[nH]1 (stereo partly shown) and print it.
A: 22 nM
